Origin of measurements: paper PMC9933231

# test-details: Cytotoxicity assay
# Assay type: cell-based
# experimental-conditions: human, HaCaT keratinocytes
experimental-endpoint: IC50 at 24 h (µg/mL)

substance-smiles	experimental-endpoint	quantitative-readout
COc1cccc2c1C(=O)c1c(O)c3c(c(O)c1C2=O)C[C@@](O)(C(=O)CO)C[C@@H]3O[C@H]1C[C@H](N)[C@H](O)[C@H](C)O1	IC50 at 24 h	19.8

====

# test-details: Cytotoxicity assay
# Assay type: cell-based
# experimental-conditions: human, HepG2 cells
experimental-endpoint: IC50 at 24 h (µg/mL)

substance-smiles	units-of-measure	quantitative-readout
COc1cccc2c1C(=O)c1c(O)c3c(c(O)c1C2=O)C[C@@](O)(C(=O)CO)C[C@@H]3O[C@H]1C[C@H](N)[C@H](O)[C@H](C)O1	µg/mL	11.4
